molecular target: Programmed cell death protein 1/Programmed cell death 1 ligand 1 (Homo sapiens, UniProt Q9NZQ7); test: Inhibition of interaction of PD-1 (unknown origin) expressed in Jurkat T cells co-transfected with NFAT response element/PD-L1 (unknown origin) expressed in CHO-K1 cells by reporter bioassay
Sequence (Q15116 whole entry): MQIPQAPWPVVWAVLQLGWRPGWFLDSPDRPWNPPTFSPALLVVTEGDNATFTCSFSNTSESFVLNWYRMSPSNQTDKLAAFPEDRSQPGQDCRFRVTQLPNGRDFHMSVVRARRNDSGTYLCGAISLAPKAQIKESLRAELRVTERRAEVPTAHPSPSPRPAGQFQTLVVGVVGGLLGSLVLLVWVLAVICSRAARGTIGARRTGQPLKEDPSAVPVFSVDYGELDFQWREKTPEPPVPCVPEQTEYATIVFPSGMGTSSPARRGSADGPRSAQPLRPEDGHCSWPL
Sequence (Q9NZQ7 whole entry): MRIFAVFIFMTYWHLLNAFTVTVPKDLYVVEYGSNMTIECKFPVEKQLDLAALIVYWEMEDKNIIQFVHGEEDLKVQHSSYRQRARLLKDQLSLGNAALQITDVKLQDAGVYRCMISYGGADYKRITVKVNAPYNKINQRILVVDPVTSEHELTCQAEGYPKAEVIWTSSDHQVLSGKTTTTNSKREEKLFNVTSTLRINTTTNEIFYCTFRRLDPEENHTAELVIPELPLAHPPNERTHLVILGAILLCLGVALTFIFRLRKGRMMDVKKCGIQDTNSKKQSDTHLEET
Assay Metric: pEC50
Remember the convention: pEC50 equals -log10 of concentration in molar.

Can you share its pEC50? I mean this molecule: Cc1c(NC(=O)c2ccc(CNCCO)cn2)cccc1-c1cccc(NC(=O)c2ccc(CNCCO)cn2)c1C
7.77

Sourced from ChEMBL document CHEMBL5532729
